Target: cGAS (Homo sapiens)
Sequence (Q8N884 whole entry): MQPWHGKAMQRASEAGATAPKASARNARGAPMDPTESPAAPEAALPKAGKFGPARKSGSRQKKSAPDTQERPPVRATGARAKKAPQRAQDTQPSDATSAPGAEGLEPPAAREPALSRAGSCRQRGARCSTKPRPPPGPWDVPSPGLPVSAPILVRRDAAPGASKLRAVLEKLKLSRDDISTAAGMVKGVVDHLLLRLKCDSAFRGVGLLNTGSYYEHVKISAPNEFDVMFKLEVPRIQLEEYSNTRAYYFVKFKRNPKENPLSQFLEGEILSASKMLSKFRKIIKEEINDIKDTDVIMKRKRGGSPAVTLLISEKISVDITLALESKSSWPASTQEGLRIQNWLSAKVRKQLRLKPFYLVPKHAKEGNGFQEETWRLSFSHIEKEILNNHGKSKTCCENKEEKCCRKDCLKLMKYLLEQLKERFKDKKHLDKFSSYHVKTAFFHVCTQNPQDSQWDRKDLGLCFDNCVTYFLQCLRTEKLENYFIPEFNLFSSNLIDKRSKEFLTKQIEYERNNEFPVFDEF
Assay: Human cGAS enzyme assay (hcGAS IC50, in vitro), cGAMP formation by RapidFire MS
Type: biochemical
Design: HumancGAS (amino acid 1-522) with an N-terminal 6×-His-tag and SUMO-tag; 6xHis (N); SUMO (N); made in house; host or cells: E. coli BL21(DE3) pLysS
Settings: Table 1; 45 bp dsDNA-activated enzyme
pIC50: −log10 of the molar value.
measurementType: pIC50

# compound, measurementType, assayValue
rows = [
    ("C[C@H]1CN2CC[C@@H]1n1c(nc3ccccc31)O[C@H]1C[C@@H](C(=O)O)N(C1)c1nc(nc3c1oc1ccccc13)CCCCCC2=O [Example 1.19]", "pIC50", 8.42),
    ("Cc1cccc2c1nc1n2[C@H]2CCN(C[C@@H]2C)C(=O)CCCCCC(F)(F)c2nc(c3oc4ccccc4c3n2)N2C[C@H](C[C@H]2C(=O)O)O1 [Example 1.28]", "pIC50", 7.96),
    ("C[C@H]1CN2CC[C@@H]1n1c(nc3ccccc31)O[C@H]1C[C@@H](C(=O)O)N(C1)c1nc(nc3c1oc1ccccc13)C(F)(F)CCCCC(F)(F)C2=O [Example 1.17]", "pIC50", 8.14),
    ("C[C@@H]1CN2CC[C@H]1n1c(nc3ccccc31)O[C@H]1C[C@@H](C(=O)O)N(C1)c1nc(nc3c1oc1ccccc13)CCCCCOC2=O [Example 10.01]", "pIC50", 7.27),
    ("C[C@H]1CN2CC[C@@H]1n1c(nc3ccccc31)O[C@H]1C[C@@H](C(=O)O)N(C1)c1nc(nc3c1oc1ccccc13)CCCCCOC2=O [Example 10.02]", "pIC50", 7.47),
    ("C[C@H]1CN2CC[C@@H]1n1c(nc3cc(Cl)ccc31)O[C@H]1C[C@@H](C(=O)O)N(C1)c1nc(nc3c1oc1ccccc13)COCCOCC2=O [Example 1.11]", "pIC50", 8.72),
    ("C[C@H]1CN2CC[C@@H]1n1c(nc3cc(F)ccc31)O[C@H]1C[C@@H](C(=O)O)N(C1)c1nc(nc3c1oc1ccccc13)C(F)(F)CCCCC(F)(F)C2=O [Example 1.18]", "pIC50", 8.41),
    ("C[C@@H]1CC(=O)N2CCC(CC2)n2c(nc3ccccc32)O[C@H]2C[C@@H](C(=O)O)N(C2)c2nc(nc3c2oc2ccccc23)CCCO1 [Example 7.01]", "pIC50", 8.06),
    ("C[C@H]1CN2CC[C@@H]1n1c(nc3ccccc31)O[C@H]1C[C@@H](C(=O)O)N(C1)c1nc(nc3c1oc1ccccc13)CCCC(C)(C)CCC2=O [Example 1.23]", "pIC50", 7.39),
    ("C[C@H]1CN2CC[C@@H]1n1c(nc3cc(Cl)ccc31)O[C@H]1C[C@@H](C(=O)O)N(C1)c1nc(nc3c1oc1ccccc13)C(F)(F)CCCCCC2=O [Example 1.12]", "pIC50", 8.28),
    ("C[C@H]1CN2CC[C@@H]1n1c(nc3ccccc31)O[C@H]1C[C@@H](C(=O)O)N(C1)c1nc(nc3c1oc1cc(Cl)ccc13)CCOCCCC2=O [Example 1.07]", "pIC50", 8.42),
    ("C[C@@H]1CCCCC(=O)N2CCC(CC2)n2c(nc3ccccc32)O[C@H]2C[C@@H](C(=O)O)N(C2)c2nc1nc1c2oc2ccccc21 [Example 1.26]", "pIC50", 8.47),
    ("C[C@H]1CN2CC[C@@H]1n1c(nc3ccccc31)O[C@H]1C[C@@H](C(=O)O)N(C1)c1nc(nc3c1oc1cc(Cl)ccc13)C(F)(F)CCCCCC2=O [Example 1.16]", "pIC50", 8.48),
    ("C[C@H]1CN2CC[C@@H]1n1c(nc3ccc(Cl)cc31)O[C@H]1C[C@@H](C(=O)O)N(C1)c1nc(nc3c1oc1ccccc13)CCOCCCC2=O [Example 1.06]", "pIC50", 8.49),
    ("C[C@H]1CN2CC[C@@H]1n1c(nc3cc(F)ccc31)O[C@H]1C[C@@H](C(=O)O)N(C1)c1nc(nc3c1oc1cc(F)ccc13)C(F)(F)CCCCCC2=O [Example 1.15]", "pIC50", 8.46),
    ("C[C@H]1CCCCC(=O)N2CCC(CC2)n2c(nc3ccccc32)O[C@H]2C[C@@H](C(=O)O)N(C2)c2nc1nc1c2oc2ccccc21 [Example 1.25]", "pIC50", 8.26),
    ("C[C@H]1CN2CC[C@@H]1n1c(nc3ccc(Cl)cc31)O[C@H]1C[C@@H](C(=O)O)N(C1)c1nc(nc3c1oc1ccccc13)C(F)(F)CCCCCC2=O [Example 1.13]", "pIC50", 8.21),
    ("C[C@H]1CN2CC[C@@H]1n1c(nc3cc(Cl)ccc31)O[C@H]1C[C@@H](C(=O)O)N(C1)c1nc(nc3c1oc1cc(Cl)ccc13)CCOCCCC2=O [Example 1.08]", "pIC50", 8.35),
    ("C[C@H]1CN2CC[C@@H]1n1c(nc3cccc(Cl)c31)O[C@H]1C[C@@H](C(=O)O)N(C1)c1nc(nc3c1oc1ccccc13)CC(=O)NCCCC2=O (racemic) [Example 2.01]", "pIC50", 8.22),
    ("C[C@H]1CN2CC[C@@H]1n1c(nc3cc(Cl)ccc31)O[C@H]1C[C@@H](C(=O)O)N(C1)c1nc(nc3c1oc1ccccc13)C(F)(F)CCCOCC2=O [Example 1.21]", "pIC50", 8.48),
    ("C[C@H]1CN2CC[C@@H]1n1c(nc3ccccc31)O[C@H]1C[C@@H](C(=O)O)N(C1)c1nc(nc3c1oc1ccccc13)CCOCCCC2=O [Example 1.05]", "pIC50", 8.74),
    ("O=C(O)[C@@H]1C[C@H]2CN1c1nc(nc3c1oc1ccccc13)COCCCCCC(=O)N1CCC(CC1)n1c(nc3cccc(F)c31)O2 [Example 5.01]", "pIC50", 8.26),
    ("O=C(O)[C@@H]1C[C@H]2CN1c1nc(nc3c1oc1ccccc13)OCCCCOC(=O)N1CCC(CC1)n1c(nc3ccccc31)O2 [Example 11.01]", "pIC50", 8.00),
]

====

# maps each entry to its pIC50
Test system: IFN induction in cGAMP-stimulated THP1 cells
Test: cGAMP stimulated counter cell assay in THP1-Dual cells (THP1(cGAMP) IC50)
Format: cell-based, human
Conditions: Homo sapiens, THP-1; Table 1; counter assay, 10 μM cGAMP stimulation; read-out: THP(cGAMP) IC50
pIC50: −log10 of the molar value.

# itemSmiles, pIC50
data = [
    ("C[C@H]1CN2CC[C@@H]1n1c(nc3ccccc31)O[C@H]1C[C@@H](C(=O)O)N(C1)c1nc(nc3c1oc1ccccc13)CCCCCOC2=O", "< 5.00"),
    ("C[C@H]1CN2CC[C@@H]1n1c(nc3cc(Cl)ccc31)O[C@H]1C[C@@H](C(=O)O)N(C1)c1nc(nc3c1oc1ccccc13)C(F)(F)CCCOCC2=O", "< 5.00"),
    ("C[C@H]1CCCCC(=O)N2CCC(CC2)n2c(nc3ccccc32)O[C@H]2C[C@@H](C(=O)O)N(C2)c2nc1nc1c2oc2ccccc21", "< 5.00"),
    ("O=C(O)[C@@H]1C[C@H]2CN1c1nc(nc3c1oc1ccccc13)COCCCCCC(=O)N1CCC(CC1)n1c(nc3cccc(F)c31)O2", "< 5.00"),
    ("C[C@H]1CN2CC[C@@H]1n1c(nc3cc(Cl)ccc31)O[C@H]1C[C@@H](C(=O)O)N(C1)c1nc(nc3c1oc1ccccc13)CCOCCCC2=O", "< 5.00"),
    ("C[C@H]1CN2CC[C@@H]1n1c(nc3ccccc31)O[C@H]1C[C@@H](C(=O)O)N(C1)c1nc(nc3c1oc1ccccc13)C(F)(F)COCCCCC2=O", 4.85),
]

====

Target: cGAS (Homo sapiens)
Assay: Human cGAS enzyme assay (hcGAS IC50, in vitro), cGAMP formation by RapidFire MS
Assay type: biochemical
Set-up: HumancGAS (amino acid 1-522) with an N-terminal 6×-His-tag and SUMO-tag; 6xHis (N); SUMO (N); made in house; host or cells: E. coli BL21(DE3) pLysS
Details: Table 1; 45 bp dsDNA-activated enzyme
pIC50: −log10 of the molar value.

# molecule, pIC50
rows = [
    ("C[C@H]1CN2CC[C@@H]1n1c(nc3ccccc31)O[C@H]1C[C@@H](C(=O)O)N(C1)c1nc(nc3c1oc1ccccc13)CCCCCN(C)C2=O", 7.47),
    ("C[C@H]1CN2CC[C@@H]1n1c(nc3ccccc31)O[C@H]1C[C@@H](C(=O)O)N(C1)c1nc(nc3c1oc1cc(F)ccc13)C(F)(F)CCCCCC2=O", 8.39),
    ("O=C(O)[C@@H]1C[C@H]2CN1c1nc(nc3c1oc1ccccc13)COCCCC(F)(F)C(=O)N1CCC(CC1)n1c(nc3ccccc31)O2", 8.25),
    ("C[C@H]1CN2CC[C@@H]1n1c(nc3cc(Cl)ccc31)O[C@H]1C[C@@H](C(=O)O)N(C1)c1nc(nc3c1oc1ccccc13)CCOCCCC2=O", 8.55),
    ("C[C@H]1CN2CC[C@@H]1n1c(nc3ccccc31)O[C@H]1C[C@@H](C(=O)O)N(C1)c1nc(nc3c1oc1ccccc13)CCOCCOC2=O (mixture of isomers)", 8.05),
    ("C[C@H]1CN2CC[C@@H]1n1c(nc3ccccc31)O[C@H]1C[C@@H](C(=O)O)N(C1)c1nc(nc3c1oc1cc(Cl)ccc13)C(F)(F)CCCOCC2=O", 8.57),
]

Numbers sourced from patent US20240208997A1.
